Ref: paper PMC6844396

recorded.endpoint: melting point

These recorded examples may help you get a feel for the data.
{"compound": "CN1CCN(c2ccc(C(=O)Nc3n[nH]c(CCc4ccccc4)n3)cc2)CC1 [18a]", "melting point": "218.1 to 222.5 °C"}
{"compound": "COc1cccc(-c2ccc3c(NC(=O)c4ccc(N5C[C@@H](C)N[C@@H](C)C5)cc4)n[nH]c3c2)c1", "melting point": "224.8 to 227.4 °C"}
{"compound": "CCOc1cccc(-c2ccc3c(NC(=O)c4ccc(N5CCN(CC)CC5)cc4)n[nH]c3c2)c1", "melting point": "223.6 to 226 °C"}
{"compound": "CCN1CCN(c2ccc(C(=O)Nc3n[nH]c4cc(-c5ccccc5OC(F)(F)F)ccc34)cc2)CC1", "melting point": "230.9 to 233.5 °C"}
{"compound": "COc1cc(F)cc(-c2ccc3c(NC(=O)c4ccc(N5CCC(N(C)C)CC5)cc4)n[nH]c3c2)c1", "melting point": "223.8 to 227.4 °C"}

Ask | # lookup: melting point of COc1cccc(-c2ccc3nc(NC(=O)c4ccc(N5CCN(C)CC5)cc4)sc3c2)c1 [12a]
Reply | 230.5 to 233.2 °C

Ask | Requested read-out: melting point. Entry: CCN1CCN(c2ccc(C(=O)Nc3n[nH]c4cc(-c5cc(Cl)cc(Cl)c5)ccc34)cc2)CC1
Reply | 226.4 to 228.7 °C

Ask | Fill in: melting point of CCN1CCN(c2ccc(C(=O)Nc3n[nH]c4cc(-c5c(C)cccc5C)ccc34)cc2)CC1 is ___
Reply | 235.7 to 239.2 °C

Ask | Which value of melting point has been reported for COc1cccc(-c2ccc3nc(NC(=O)c4ccc(N5CCN(C)CC5)cc4)sc3c2)c1F [12d] in the records?
Reply | 232.5 to 235.2 °C

Ask | I have this compound here, CCN1CCN(c2ccc(C(=O)Nc3n[nH]c4cc(-c5cccc(Cl)c5Cl)ccc34)cc2)CC1 , and I need its recorded melting point.
Reply | 220.1 to 222.4 °C

Ask | What value of melting point has been recorded for this entry: COc1cc(F)cc(-c2ccc3c(NC(=O)c4ccc(N5C[C@@H](C)N[C@@H](C)C5)cc4)n[nH]c3c2)c1
Reply | 229.6 to 233.4 °C
